Recorded IC50, one value per entry.
biological target: adenosine A2B receptor (Homo sapiens (Human), UniProt P29275); test: Adenosine receptor activity assay (Table 1), A2B activity; type: biochemical; conditions: read-out: Ave A2B cAMP IC50
Sequence (P29275 whole entry): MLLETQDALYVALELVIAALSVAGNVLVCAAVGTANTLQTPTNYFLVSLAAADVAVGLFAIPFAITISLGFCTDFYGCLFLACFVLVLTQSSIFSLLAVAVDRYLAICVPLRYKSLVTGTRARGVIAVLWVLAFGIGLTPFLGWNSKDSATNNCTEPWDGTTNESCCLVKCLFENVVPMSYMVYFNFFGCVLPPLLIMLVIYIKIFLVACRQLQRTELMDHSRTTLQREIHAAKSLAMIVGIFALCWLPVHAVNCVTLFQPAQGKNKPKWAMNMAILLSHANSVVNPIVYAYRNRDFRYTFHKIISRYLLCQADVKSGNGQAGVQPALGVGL

Observed IC50 on adenosine A2B receptor (Homo sapiens (Human), UniProt P29275), entry `C[C@H](Nc1nc(C(=O)N2CC[C@@H](N)C2)c2sccc2n1)c1ccccn1` , equals 100 to 500 nM

Observed IC50 on adenosine A2B receptor (Homo sapiens (Human), UniProt P29275), entry `CO[C@@H]1CCN(C(=O)c2nc(N[C@@H](C)c3ccccn3)nc3c(C)csc23)C1` , equals 10 to 50 nM

Observed IC50 on adenosine A2B receptor (Homo sapiens (Human), UniProt P29275), entry `C[C@H](Nc1nc(C(=O)N2CCOC2)c2sccc2n1)c1ccccn1` , equals < 10 nM

Observed IC50 on adenosine A2B receptor (Homo sapiens (Human), UniProt P29275), entry `Cc1cc2nc(N[C@@H](C)c3cccnc3)nc(C(=O)NC[C@@H]3CCOC3)c2s1` , equals 50 to 100 nM

Observed IC50 on adenosine A2B receptor (Homo sapiens (Human), UniProt P29275), entry `CNc1cc2nc(N[C@@H](C)c3cncc(F)c3)nc(C(=O)N3CC(OC)C3)c2s1` , equals < 10 nM

Observed IC50 on adenosine A2B receptor (Homo sapiens (Human), UniProt P29275), entry `O=C(c1nc(NCc2cnccn2)nc2ccsc12)N1CC[C@H](O)C1` , equals > 500 nM

Observed IC50 on adenosine A2B receptor (Homo sapiens (Human), UniProt P29275), entry `O=C(NCCO)c1nc(NCc2cc(F)cc(F)c2)nc2ccsc12` , equals < 10 nM

Observed IC50 on adenosine A2B receptor (Homo sapiens (Human), UniProt P29275), entry `C[C@H](Nc1nc(C(=O)NCCc2ccc(O)cc2)c2sccc2n1)c1ccnc(F)c1` , equals < 10 nM

Observed IC50 on adenosine A2B receptor (Homo sapiens (Human), UniProt P29275), entry `CO[C@@H]1CCN(C(=O)c2nc(N[C@@H](C)c3cncc(Cl)c3)nc3ccsc23)C1` , equals 10 to 50 nM

Observed IC50 on adenosine A2B receptor (Homo sapiens (Human), UniProt P29275), entry `CC(=O)N1CC(CCNC(=O)c2nc(N[C@@H](C)c3cncc(F)c3)nc3ccsc23)C1` , equals 10 to 50 nM

---

Recorded IC50, one value per entry.
target: adenosine A2A receptor (Homo sapiens (Human)); test: Adenosine receptor activity assay (Table 1), A2A activity; type: biochemical; conditions: read-out: Ave A2A cAMP IC50
Sequence (P29274 whole entry): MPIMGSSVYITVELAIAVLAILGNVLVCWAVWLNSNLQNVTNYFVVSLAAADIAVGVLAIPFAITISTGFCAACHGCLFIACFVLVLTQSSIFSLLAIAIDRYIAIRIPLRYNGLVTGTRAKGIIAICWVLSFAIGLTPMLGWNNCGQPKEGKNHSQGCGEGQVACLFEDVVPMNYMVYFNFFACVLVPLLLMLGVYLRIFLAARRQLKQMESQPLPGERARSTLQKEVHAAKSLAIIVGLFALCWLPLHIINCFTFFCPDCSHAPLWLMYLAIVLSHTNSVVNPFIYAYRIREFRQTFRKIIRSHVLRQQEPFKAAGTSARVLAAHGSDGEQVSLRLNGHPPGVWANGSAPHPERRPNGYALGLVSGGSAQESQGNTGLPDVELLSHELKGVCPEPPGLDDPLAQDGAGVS

Here's what some known entries look like.
O=C(c1nc(NCc2cncc(F)c2)nc2ccsc12)N1CC[C@H](F)C1 > 500 nM
CC(=O)NCC1CN(C(=O)c2nc(N[C@@H](C)c3cncc(F)c3)nc3ccsc23)C1 100 to 500 nM
CNC1CN(C(=O)c2nc(NCc3cncc(F)c3)nc3ccsc23)C1 > 500 nM
CC(=O)NC1CN(C(=O)c2nc(N[C@@H](C)c3ccccn3)nc3ccsc23)C1 100 to 500 nM

Observed IC50 on adenosine A2A receptor (Homo sapiens (Human)), entry `Cc1cc2nc(N[C@@H](C)c3ccccn3)nc(C(=O)N3CC(CN)C3)c2s1` , equals > 500 nM

Observed IC50 on adenosine A2A receptor (Homo sapiens (Human)), entry `C[C@H](Nc1nc(C(=O)NCC(F)(F)F)c2sccc2n1)c1ccccn1` , equals 50 to 100 nM

Observed IC50 on adenosine A2A receptor (Homo sapiens (Human)), entry `Cc1cc2nc(N[C@@H](C)c3cccnc3)nc(C(=O)N3CC[C@@H](CO)C3)c2s1` , equals > 500 nM

Observed IC50 on adenosine A2A receptor (Homo sapiens (Human)), entry `C[C@H](Nc1nc(C(=O)NCCc2ccc(S(N)(=O)=O)cc2)c2sccc2n1)c1cncc(F)c1` , equals > 500 nM
